Reported Plant response rating, Pigweed values for the following compounds.
Tested on: pigweed (Amaranthus retroflexus)
Experiment: Test A preemergence
Type: in vivo
Conditions: 125 g ai/ha, preemergence; 0 to 100 scale (0 no effect, 100 complete control)
observable: Plant response rating, Pigweed

{"compound": "O=C1NCC(c2cccc(OC(F)F)c2)C1C(=O)Nc1cccc(OC(F)F)c1 (stereo not shown) [Compound 422]", "target desc": "pigweed (Amaranthus retroflexus)", "test result": 20}
{"compound": "CN1CC(c2cccc(OC(F)(F)C(F)F)c2)C(C(=O)Nc2ccc(F)c(F)c2F)C1=O (stereo not shown) [Compound 429]", "target desc": "pigweed (Amaranthus retroflexus)", "test result": 80}
{"compound": "O=C1NCC(c2ccccc2-c2ccccc2)C1C(=O)Nc1ccc(F)c(F)c1F (racemic) [Compound 382]", "target desc": "pigweed (Amaranthus retroflexus)", "test result": 0}
{"compound": "Cc1cc(C2CNC(=O)C2C(=O)Nc2cccc(F)c2F)ccc1F (stereo not shown) [Compound 400]", "target desc": "pigweed (Amaranthus retroflexus)", "test result": 60}
{"compound": "O=C1NCC(c2ccoc2)C1C(=O)Nc1ccccc1F (racemic) [Compound 356]", "target desc": "pigweed (Amaranthus retroflexus)", "test result": 0}
{"compound": "Nc1cccc(C2CNC(=O)C2C(=O)Nc2cccc(F)c2F)c1 (stereo not shown) [Compound 354]", "target desc": "pigweed (Amaranthus retroflexus)", "test result": 0}
{"compound": "COc1cccc(NC(=O)C2C(=O)NCC2c2ccc(F)c(F)c2)c1F (stereo not shown) [Compound 416]", "target desc": "pigweed (Amaranthus retroflexus)", "test result": 0}
{"compound": "O=C1NCC(c2ccoc2)C1C(=O)Nc1ccccc1C(F)(F)F (racemic) [Compound 364]", "target desc": "pigweed (Amaranthus retroflexus)", "test result": 0}
{"compound": "O=C1NCC(c2ccccc2-c2ccccc2)C1C(=O)Nc1ccccc1F (racemic) [Compound 381]", "target desc": "pigweed (Amaranthus retroflexus)", "test result": 0}
{"compound": "Cc1cc(C2CN(C)C(=O)C2C(=O)Nc2ccccc2F)ccc1F (stereo not shown) [Compound 402]", "target desc": "pigweed (Amaranthus retroflexus)", "test result": 30}
